TARGET_DESC: UniProt:Q92731
PROTOCOL_TEXT: Inhibition of fluormone ES2 binding to estrogen receptor beta after 1 hr by fluorescence polarization assay
OBSERVED_PROPERTY: IC50 (nM)
Please reply with the bare figure in nM and do not write the unit itself.

Test system UniProt:Q92731; read-out IC50; what value for Oc1ccc2c(c1)O[C@H](c1ccc(OCCN3CCOCC3)cc1)C1=C2CCOc2cc(O)ccc21 ?
35

Which measured IC50 belongs to Oc1ccc2c(c1)O[C@H](c1ccc(OCCN3CCCCCC3)cc1)C1=C2CCOc2cc(O)ccc21 , tested on UniProt:Q92731?
19

// lookup IC50 | system=UniProt:Q92731 | key= Oc1ccc2c(c1)OC(c1ccc(OCCN3CCCCC3)cc1)C1=C2CCCOc2cc(O)ccc21 (single isomer, unassigned; (+))
77

----------
Would you kindly list pIC50 for each of these molecules?
# log scale: pIC50 equals minus log10 of the concentration in mol/L

Value wanted: pIC50 (Estrogen receptor beta (Homo sapiens, UniProt Q92731)) of entry OCCCOc1ccc(C2Oc3cc(O)ccc3C3=C2c2ccc(O)cc2OCC3)cc1 (centres undefined)
7.36

I'm curious: which pIC50 was measured for Oc1ccc2c(c1)O[C@@H](c1ccc(OCCN3CCSCC3)cc1)C1=C2CCOc2cc(O)ccc21 tested on Estrogen receptor beta (Homo sapiens, UniProt Q92731)?
6.41

Give the reported pIC50 for Oc1ccc2c(c1)O[C@H](c1ccc(OCCN3CCCC3)cc1)C1=C2CCOc2cc(O)ccc21 (system: Estrogen receptor beta (Homo sapiens, UniProt Q92731)).
Sequence (Q92731 whole entry): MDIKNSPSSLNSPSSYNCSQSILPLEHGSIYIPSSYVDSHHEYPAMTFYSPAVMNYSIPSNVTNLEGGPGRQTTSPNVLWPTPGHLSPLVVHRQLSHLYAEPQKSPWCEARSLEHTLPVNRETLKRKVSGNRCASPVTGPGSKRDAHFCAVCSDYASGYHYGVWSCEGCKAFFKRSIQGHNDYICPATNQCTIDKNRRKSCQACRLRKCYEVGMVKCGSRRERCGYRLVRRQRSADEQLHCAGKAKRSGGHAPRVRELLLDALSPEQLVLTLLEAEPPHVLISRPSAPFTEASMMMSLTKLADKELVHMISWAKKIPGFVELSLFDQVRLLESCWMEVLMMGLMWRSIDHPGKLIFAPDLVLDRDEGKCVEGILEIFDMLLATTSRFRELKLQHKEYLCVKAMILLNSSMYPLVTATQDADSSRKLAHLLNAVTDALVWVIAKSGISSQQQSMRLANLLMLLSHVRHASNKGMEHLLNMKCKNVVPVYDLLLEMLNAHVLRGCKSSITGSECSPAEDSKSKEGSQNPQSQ
7.85

What pIC50 appears in the records for this molecule with Estrogen receptor beta (Homo sapiens, UniProt Q92731)? Oc1ccc2c(c1)O[C@@H](c1ccc(OCCN3CCOCC3)cc1)C1=C2CCOc2cc(O)ccc21
7.96

Item: Oc1ccc2c(c1)O[C@H](c1ccc(OCCN3CCCCC3)cc1)C1=C2CCOc2ccccc21 Test system: Estrogen receptor beta (Homo sapiens, UniProt Q92731) Read-out: pIC50 Value: ?
6.70

What reported pIC50 corresponds to CN(C)CCOc1ccc([C@H]2Oc3cc(O)ccc3C3=C2c2ccc(O)cc2OCC3)cc1 on Estrogen receptor beta (Homo sapiens, UniProt Q92731)?
7.64

----------
TARGET_DESC: Estrogen receptor (Homo sapiens, UniProt P03372)
Sequence (P03372 whole entry): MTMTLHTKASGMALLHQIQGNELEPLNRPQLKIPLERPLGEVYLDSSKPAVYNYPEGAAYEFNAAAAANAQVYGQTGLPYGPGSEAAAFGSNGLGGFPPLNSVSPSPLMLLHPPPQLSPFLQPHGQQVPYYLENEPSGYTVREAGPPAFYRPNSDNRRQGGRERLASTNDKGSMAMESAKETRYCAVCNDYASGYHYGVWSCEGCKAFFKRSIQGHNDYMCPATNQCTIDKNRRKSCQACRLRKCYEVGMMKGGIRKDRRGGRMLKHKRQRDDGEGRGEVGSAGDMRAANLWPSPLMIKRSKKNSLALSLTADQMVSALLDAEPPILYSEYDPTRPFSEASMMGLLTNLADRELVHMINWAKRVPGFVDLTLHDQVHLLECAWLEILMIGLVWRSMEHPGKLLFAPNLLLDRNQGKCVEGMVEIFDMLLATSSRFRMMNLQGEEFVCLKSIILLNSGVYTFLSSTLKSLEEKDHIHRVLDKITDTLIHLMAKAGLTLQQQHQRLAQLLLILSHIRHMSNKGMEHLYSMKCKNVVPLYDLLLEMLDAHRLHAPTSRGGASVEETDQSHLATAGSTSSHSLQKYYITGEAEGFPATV
PROTOCOL_TEXT: Antagonist activity at estrogen receptor in human Ishikawa cells assessed as 17-beta-estradiol-induced alkaline phosphatase activity after 3 days by chemiluminescence assay
Type: functional, cell-based
What IC50 was measured for each of the following?
The response must be a number in µM with no trailing unit.

Form entry - test system: Estrogen receptor (Homo sapiens, UniProt P03372); read-out: IC50; compound: Oc1ccc2c(c1)OCCC1=C2[C@H](c2ccc(OCCN3CCCCCC3)cc2)Oc2cc(F)ccc21
0.161

Provide value of IC50 for this record tested with Estrogen receptor (Homo sapiens, UniProt P03372): CC(C)N(CCOc1ccc([C@H]2Oc3cc(O)ccc3C3=C2c2ccc(O)cc2OCC3)cc1)C(C)C
0.287

Given the entry Oc1ccc2c(c1)O[C@H](c1ccc(OCCN3CCCCC3)cc1)C1=C2CCOc2ccccc21 , what IC50 was observed with Estrogen receptor (Homo sapiens, UniProt P03372)?
0.259

Lab note: need IC50 with Estrogen receptor (Homo sapiens, UniProt P03372) for entry COc1ccc2c(c1)O[C@H](c1ccc(OCCN3CCCCC3)cc1)C1=C2CCOc2cc(OC)ccc21 , please look it up.
1.74

Which IC50 is reported with Estrogen receptor (Homo sapiens, UniProt P03372) for this entry: Oc1ccc2c(c1)O[C@H](c1ccc(OCCN3CCOCC3)cc1)C1=C2CCOc2cc(O)ccc21 ?
0.043

# get_value(readout= IC50, system= Estrogen receptor (Homo sapiens, UniProt P03372)) for Oc1ccc2c(c1)OC(c1ccc(OCCN3CCCCC3)cc1)C1=C2CCCOc2cc(O)ccc21 (single isomer, unassigned; (+))
0.121

----------
PROTOCOL_TEXT: Cmax in rats after 10 mg/kg oral dose
Format: ADME, organism-based
Parameters: dose 10 mg/kg, route oral
ASSAY_CONDITIONS: rat, in vivo
What Cmax was measured for each of the following?
Return type: number; implicit unit ng/mL.

GET /values?readout=Cmax&item= Oc1ccc2c(c1)O[C@H](c1ccc(OCCN3CCCCC3)cc1)C1=C2CCOc2cc(O)ccc21
91

Given the compound Oc1ccc2c(c1)O[C@H](c1ccc(OCCN3CCCCC3)cc1)C1=C2CCOc2ccccc21 , what is its reported Cmax?
30

# input compound: COc1ccc2c(c1)OCCC1=C2[C@@H](c2ccc(OCCN3CCCCC3)cc2)Oc2cc(O)ccc21 ; wanted: its Cmax
228

Requested field: Cmax. Item: COc1ccc2c(c1)O[C@H](c1ccc(OCCN3CCCCC3)cc1)C1=C2CCOc2cc(OC)ccc21
168

Name the reported Cmax value associated with the compound COc1ccc2c(c1)O[C@H](c1ccc(OCCN3CCCCC3)cc1)C1=C2CCOc2cc(O)ccc21
219

# input compound: Oc1ccc2c(c1)O[C@H](c1ccc(OCCN3CCSCC3)cc1)C1=C2CCOc2cc(O)ccc21 ; wanted: its Cmax
89

----------
TARGET_DESC: Estrogen receptor (Homo sapiens, UniProt P03372)
PROTOCOL_TEXT: Displacement of radiolabeled estrogen from estrogen receptor alpha by scintillation counting
OBSERVED_PROPERTY: IC50 (nM)
Give the value in nM but do not write nM after it.

Give the reported IC50 for CCN(CC)CCOc1ccc([C@H]2Oc3ccccc3C3=C2c2ccc(O)cc2OCC3)cc1 (system: Estrogen receptor (Homo sapiens, UniProt P03372)).
5

Give recorded IC50 with Estrogen receptor (Homo sapiens, UniProt P03372) for the following molecule: Oc1ccc2c(c1)OC(c1ccc(OCCN3CCCCC3)cc1)C1=C2CCOc2cc(O)ccc21 (stereo not drawn)
13

Provide the documented IC50 with Estrogen receptor (Homo sapiens, UniProt P03372) as the system for CCN(CC)CCOc1ccc([C@@H]2Oc3ccccc3C3=C2c2ccc(O)cc2OCC3)cc1
9

Request body: readout IC50, system Estrogen receptor (Homo sapiens, UniProt P03372), query CN(C)CCOc1ccc([C@@H]2Oc3cc(O)ccc3C3=C2c2ccccc2OCC3)cc1 . Return the value.
11.1

Please tell me: IC50 of Oc1ccc2c(c1)OCCC1=C2[C@@H](c2ccc(OCCN3CCCCC3)cc2)Oc2ccccc21 , system Estrogen receptor (Homo sapiens, UniProt P03372)?
5.8

For the record COc1ccc2c(c1)O[C@H](c1ccc(OCCN3CCCCC3)cc1)C1=C2CCOc2cc(O)ccc21 , what value of IC50 is listed for Estrogen receptor (Homo sapiens, UniProt P03372)?
9

Give the reported IC50 for CN(C)CCOc1ccc([C@@H]2Oc3cc(O)ccc3C3=C2c2ccc(O)cc2OCC3)cc1 (system: Estrogen receptor (Homo sapiens, UniProt P03372)).
11

Please provide the recorded IC50 for Oc1ccc2c(c1)O[C@H](c1ccc(OCCN3CCOCC3)cc1)C1=C2CCOc2cc(O)ccc21 , tested on Estrogen receptor (Homo sapiens, UniProt P03372).
1.6

For the record COc1ccc2c(c1)O[C@H](c1ccc(OCCN3CCCCC3)cc1)C1=C2CCOc2cc(OC)ccc21 , what value of IC50 is listed for Estrogen receptor (Homo sapiens, UniProt P03372)?
64

Find the measured IC50: item O=C1CCC(=O)N1CCCOc1ccc([C@@H]2Oc3cc(O)ccc3C3=C2c2ccc(O)cc2OCC3)cc1 , target or system Estrogen receptor (Homo sapiens, UniProt P03372).
41

API: value(readout=IC50, system=Estrogen receptor (Homo sapiens, UniProt P03372)) for record Oc1ccc2c(c1)O[C@@H](c1ccc(OCCN3CCCCCC3)cc1)C1=C2CCOc2ccccc21
4

Form: Entry = Oc1ccc2c(c1)O[C@@H](c1ccc(OCCN3CCCC3)cc1)C1=C2CCOc2cc(O)ccc21 | System = Estrogen receptor (Homo sapiens, UniProt P03372) | IC50 = ____
2.5

What reported IC50 corresponds to Oc1ccc2c(c1)O[C@H](c1cccc(OCCN3CCCCC3)c1)C1=C2CCOc2cc(O)ccc21 on Estrogen receptor (Homo sapiens, UniProt P03372)?
150

Requested read-out IC50, target or system Estrogen receptor (Homo sapiens, UniProt P03372), entry CN(C)CCOc1ccc([C@H]2Oc3cc(O)ccc3C3=C2c2ccc(O)cc2OCC3)cc1
3.3

Could you share what IC50 was measured for CN(C)CCOc1ccc([C@H]2Oc3cc(O)ccc3C3=C2c2ccccc2OCC3)cc1 , tested on Estrogen receptor (Homo sapiens, UniProt P03372)?
180

For the record CC(C)N(CCOc1ccc([C@H]2Oc3cc(O)ccc3C3=C2c2ccc(O)cc2OCC3)cc1)C(C)C , what value of IC50 is listed for Estrogen receptor (Homo sapiens, UniProt P03372)?
5.4
